Catalogue of compounds with associated z-score
Protocol text: DUSP6 inhibitors restoring Erk phosphorylation by chemical complementation, primary imaging in DUSP6-transfected HeLa (AID 609)
Test settings: HeLa MKP-3 transfected, phospho-Erk imaging KS statistic; measured here: cell density z-score; at 10 µM; cells stimulated with TPA for 15 min

| Compound | z-score |
| --- | --- |
| CN1c2ccccc2-c2nc3ccccc3n2C1c1ccco1 (centres undefined) | 0.728 |
| O=C(c1ccccc1)C(CCC(CN1CCOCC1)C(=O)c1ccccc1)CN1CCOCC1 (centres undefined) | 0.046 |
| CCOC(=O)c1cc2c(=O)n3cccc(C)c3nc2n(C)c1=N | 1.38 |
| CCOCCN(C(=O)COC)c1cccc(OC)c1 | 0.00474 |
